# SYSTEM NAME: OR1A1 (Homo sapiens)
# Sequence (Q9P1Q5 whole entry): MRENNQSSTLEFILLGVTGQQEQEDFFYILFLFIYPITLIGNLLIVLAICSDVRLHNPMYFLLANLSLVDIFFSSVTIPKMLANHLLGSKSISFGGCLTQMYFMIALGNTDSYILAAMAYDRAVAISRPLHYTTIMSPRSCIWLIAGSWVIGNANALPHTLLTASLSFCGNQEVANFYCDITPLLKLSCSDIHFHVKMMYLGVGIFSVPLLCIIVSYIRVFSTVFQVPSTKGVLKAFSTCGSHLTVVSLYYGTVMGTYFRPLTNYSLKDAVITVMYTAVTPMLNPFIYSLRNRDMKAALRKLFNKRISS
# RUN DESCRIPTION: cAMP accumulation
EXPERIMENTAL ENDPOINT: EC50 (µM)
Quick note: give the figure in µM, leave out the unit.

Measured EC50 of CCCCCC(=O)C(C)C(C)=O (stereo not shown) : 0.388

---

# SYSTEM NAME: OR5AN1 (Homo sapiens)
# Sequence (Q8NGI8 1-311): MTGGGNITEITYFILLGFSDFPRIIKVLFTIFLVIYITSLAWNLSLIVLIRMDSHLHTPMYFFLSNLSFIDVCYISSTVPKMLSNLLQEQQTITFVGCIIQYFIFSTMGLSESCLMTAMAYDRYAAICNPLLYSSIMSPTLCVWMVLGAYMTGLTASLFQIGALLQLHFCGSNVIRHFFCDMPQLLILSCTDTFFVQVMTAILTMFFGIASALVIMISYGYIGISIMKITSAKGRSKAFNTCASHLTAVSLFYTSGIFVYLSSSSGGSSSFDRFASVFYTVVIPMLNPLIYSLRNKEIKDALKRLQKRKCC
# RUN DESCRIPTION: cAMP accumulation
EXPERIMENTAL ENDPOINT: EC50 (nM)
Return type: number; implicit unit nM.

Looking up C[C@@H]1CCCCCCCCCCCCC(=O)C1 [muscone] , I see its EC50 listed as 290
